Tested on: L363 (cancer type: MM)
Assay: normalized area under the dose-response curve (viability relative to DMSO control) (fraction); higher = less sensitive (more viable cells)
Conditions: exposure time not given
Where a name gives a salt, the structure may show the parent alone.
measuredEndpoint: normalized area under the dose-response curve
Just the number, please, no unit after it.

Q: Notebook entry, L363 (cancer type: MM) assay: normalized area under the dose-response curve of N[C@@H](Cc1ccc(N(CCCl)CCCl)cc1)C(=O)O [Melphalan hydrochloride] = ?
Result: 0.73

Q: Param readout= normalized area under the dose-response curve; system= L363 (cancer type: MM); entry= "Cc1cccc(/C=N/Nc2cc(N3CCOCC3)n3nc(-c4ccncc4)cc3n2)c1" ; returns value.
Result: 0.516

Q: # value lookup — system L363 (cancer type: MM), readout normalized area under the dose-response curve, item "Nc1ncn([C@@H]2O[C@H](CO)[C@@H](O)[C@H]2O)c(=O)n1"
Result: 0.488

Q: Form: Entry = "Cc1cn(-c2cc(NC(=O)c3ccc(C)c(Nc4nccc(-c5cccnc5)n4)c3)cc(C(F)(F)F)c2)cn1" | System = L363 (cancer type: MM) | normalized area under the dose-response curve = ____
Result: 0.634

Q: Notebook: pull reported normalized area under the dose-response curve for L363 (cancer type: MM), entry "CC1(C)CCC(CN2CCN(c3ccc(C(=O)NS(=O)(=O)c4ccc(NCC5CCOCC5)c([N+](=O)[O-])c4)c(Oc4cnc5[nH]ccc5c4)c3)CC2)=C(c2ccc(Cl)cc2)C1"
Result: 0.584

Q: What measured normalized area under the dose-response curve is associated with O=C(/C=C\n1cnc(-c2cc(C(F)(F)F)cc(C(F)(F)F)c2)n1)NNc1cnccn1 [Selinexor] on L363 (cancer type: MM)?
Result: 0.153

Q: Reported normalized area under the dose-response curve for L363 (cancer type: MM), given "COC(=O)c1ccc2c(c1)NC(=O)/C2=C(\Nc1ccc(N(C)C(=O)CN2CCN(C)CC2)cc1)c1ccccc1" ?
Result: 0.798

Q: Request - read-out normalized area under the dose-response curve | tested on L363 (cancer type: MM) | molecule Nc1nc(F)nc2c1ncn2[C@@H]1O[C@H](COP(=O)(O)O)[C@@H](O)[C@@H]1O [Fludarabine phosphate]
Result: 0.781

* * *

For each record, write down the corresponding normalized area under the dose-response curve.
System: LP1 (cancer type: MM)
Experiment: normalized area under the dose-response curve (viability relative to DMSO control) (fraction); higher = less sensitive (more viable cells)
Conditions: exposure time not given

Q: Lab request: please report normalized area under the dose-response curve under test system LP1 (cancer type: MM) for "CO[C@H]1C[C@@H]2CC[C@@H](C)[C@@](O)(O2)C(=O)C(=O)N2CCCC[C@H]2C(=O)O[C@H]([C@H](C)C[C@@H]2CC[C@@H](OC(=O)C(C)(CO)CO)[C@H](OC)C2)CC(=O)[C@H](C)/C=C(\C)[C@@H](O)[C@@H](OC)C(=O)[C@H](C)C[C@H](C)/C=C/C=C/C=C/1C"
Result: 0.746

Q: Query for LP1 (cancer type: MM): what normalized area under the dose-response curve does the record show for "Cn1ncc(Cl)c1-c1cc(C(=O)N[C@H](CN)Cc2cccc(F)c2)sc1Cl" ?
Result: 0.384

Q: What measured normalized area under the dose-response curve is associated with "CS(=O)(=O)c1ccc(C(=O)Nc2ccc(Cl)c(-c3ccccn3)c2)c(Cl)c1" on LP1 (cancer type: MM)?
Result: 0.906

Q: // lookup normalized area under the dose-response curve | system=LP1 (cancer type: MM) | key= "Cc1cc(Nc2ncc(Cl)c(Nc3ccccc3S(=O)(=O)C(C)C)n2)c(OC(C)C)cc1C1CCNCC1"
Result: 0.365

Q: # get_value(readout= normalized area under the dose-response curve, system= LP1 (cancer type: MM)) for "CC(C)C[C@H](NC(=O)CNC(=O)c1cc(Cl)ccc1Cl)B(O)O"
Result: 0.344

Q: Form entry - test system: LP1 (cancer type: MM); read-out: normalized area under the dose-response curve; compound: "CCCS(=O)(=O)Nc1ccc(F)c(C(=O)c2c[nH]c3ncc(-c4ccc(Cl)cc4)cc23)c1F"
Result: 0.89

* * *

Tested on: KMS12PE (cancer type: MM)
Test: normalized area under the dose-response curve (viability relative to DMSO control) (fraction); higher = less sensitive (more viable cells)
Details: exposure time not given
Assign class by normalized area under the dose-response curve: not lower than 0.6 means 1 (yes); lower than 0.6 means 0 (no).

Q: Does the reported normalized area under the dose-response curve for Nc1nc(F)nc2c1ncn2[C@@H]1O[C@H](COP(=O)(O)O)[C@@H](O)[C@@H]1O [Fludarabine phosphate] fall at or above the 0.6 mark?
Result: 1 (yes)

Q: Check if normalized area under the dose-response curve >= 0.6 (inclusive). Item: "Nc1cc(C(F)(F)F)c(-c2cc(N3CCOCC3)nc(N3CCOCC3)n2)cn1"
Result: 0 (no)

Q: Would you say "Cc1cc(Nc2ncc(Cl)c(Nc3ccccc3S(=O)(=O)C(C)C)n2)c(OC(C)C)cc1C1CCNCC1" shows normalized area under the dose-response curve at minimum 0.6?
Result: 0 (no)

Q: Given "CNC(=O)c1cc(Oc2ccc(NC(=O)Nc3ccc(Cl)c(C(F)(F)F)c3)c(F)c2)ccn1" , state whether its normalized area under the dose-response curve is at least 0.6.
Result: 1 (yes)

Q: Item Nc1cccc2c1CN(C1CCC(=O)NC1=O)C2=O (stereo not given) [Lenalidomide] with normalized area under the dose-response curve of 0.6 or above?
Result: 1 (yes)

* * *

Tested on: SU-DHL2 (cancer type: DLBCL)
Assay: normalized area under the dose-response curve (viability relative to DMSO control) (fraction); higher = less sensitive (more viable cells)
Details: exposure time not given
measuredEndpoint: normalized area under the dose-response curve
// keep it numeric: no unit symbol after the value

Q: Given the molecule "C[C@@H]1C[C@H]2[C@@H]3CCC4=CC(=O)C=C[C@]4(C)[C@@]3(F)[C@@H](O)C[C@]2(C)[C@@]1(O)C(=O)CO" , what is its reported normalized area under the dose-response curve?
Result: 0.686

Q: Would you kindly share the measured normalized area under the dose-response curve for "C/C=C1\NC(=O)[C@H]2CSSCC/C=C/[C@H](CC(=O)N[C@H](C(C)C)C(=O)N2)OC(=O)[C@H](C(C)C)NC1=O" ?
Result: 0.188

Q: Which measured normalized area under the dose-response curve value corresponds to "COc1nc(N)nc2c1ncn2[C@@H]1O[C@H](CO)[C@@H](O)[C@@H]1O" ?
Result: 0.937

Q: Data request, read-out normalized area under the dose-response curve, for "CCCS(=O)(=O)Nc1ccc(F)c(C(=O)c2c[nH]c3ncc(-c4ccc(Cl)cc4)cc23)c1F"
Result: 0.972

* * *

System: JeKo-1 (cancer type: Mantle)
Assay: normalized area under the dose-response curve (viability relative to DMSO control) (fraction); higher = less sensitive (more viable cells)
Settings: exposure time not given
Hi there, I'd appreciate the recorded normalized area under the dose-response curve for every entry that follows.

Q: For JeKo-1 (cancer type: Mantle), provide normalized area under the dose-response curve of "Cc1nc(Nc2ncc(C(=O)Nc3c(C)cccc3Cl)s2)cc(N2CCN(CCO)CC2)n1" please.
Result: 0.778

Q: Which measured normalized area under the dose-response curve belongs to "O=C(c1ccc(F)c(F)c1Nc1ccc(I)cc1F)N1CC(O)([C@@H]2CCCCN2)C1" , tested on JeKo-1 (cancer type: Mantle)?
Result: 0.878

Q: Return normalized area under the dose-response curve measured with JeKo-1 (cancer type: Mantle) given this compound: "CC(=O)c1c(C)c2cnc(Nc3ccc(N4CCNCC4)cn3)nc2n(C2CCCC2)c1=O"
Result: 0.656

Q: Lab note: need normalized area under the dose-response curve for "Cc1[nH]c2ccccc2c1CCNCc1ccc(/C=C/C(=O)NO)cc1" on JeKo-1 (cancer type: Mantle), anyone have it?
Result: 0.284

Q: Observed normalized area under the dose-response curve on JeKo-1 (cancer type: Mantle) for "Cc1cc(Nc2ncc(Cl)c(Nc3ccccc3S(=O)(=O)C(C)C)n2)c(OC(C)C)cc1C1CCNCC1" , please.
Result: 0.885

Q: normalized area under the dose-response curve of Nc1cccc2c1CN(C1CCC(=O)NC1=O)C2=O (stereo not drawn) [Lenalidomide] on JeKo-1 (cancer type: Mantle)?
Result: 0.874

Q: Hello, I am looking for reported normalized area under the dose-response curve with JeKo-1 (cancer type: Mantle) for "C/C=C1\NC(=O)[C@H]2CSSCC/C=C/[C@H](CC(=O)N[C@H](C(C)C)C(=O)N2)OC(=O)[C@H](C(C)C)NC1=O" . Could you help?
Result: 0.174

Q: Find the measured normalized area under the dose-response curve: item "COc1cc2nccc(Oc3ccc(NC(=O)NC4CC4)c(Cl)c3)c2cc1C(N)=O" , target or system JeKo-1 (cancer type: Mantle).
Result: 0.938

* * *

Tested on: OCI-LY3 (cancer type: DLBCL)
Test: normalized area under the dose-response curve (viability relative to DMSO control) (fraction); higher = less sensitive (more viable cells)
Settings: exposure time not given
measuredEndpoint: normalized area under the dose-response curve
Provide a numeric answer; units are not to be included.

Q: Record request: normalized area under the dose-response curve value, item "CCCS(=O)(=O)Nc1ccc(F)c(C(=O)c2c[nH]c3ncc(-c4ccc(Cl)cc4)cc23)c1F"
Result: 0.951

Q: Return reported normalized area under the dose-response curve; argument: "C[C@@H](Oc1cc(-c2cnn(C3CCNCC3)c2)cnc1N)c1c(Cl)ccc(F)c1Cl"
Result: 0.765

Q: Recorded normalized area under the dose-response curve for "Cc1ccc(F)c(NC(=O)Nc2ccc(-c3cccc4[nH]nc(N)c34)cc2)c1" , please?
Result: 0.983

Q: Param item = "Cc1ccc(NC(=O)c2ccc(CN3CCN(C)CC3)cc2)cc1Nc1nccc(-c2cccnc2)n1" ; retrieve measured normalized area under the dose-response curve.
Result: 0.935

Q: Given "CNC(=O)c1cc(Oc2ccc(NC(=O)Nc3ccc(Cl)c(C(F)(F)F)c3)cc2)ccn1" , state its recorded normalized area under the dose-response curve.
Result: 0.955

Q: Data request, read-out normalized area under the dose-response curve, for "Nc1ncn([C@@H]2O[C@H](CO)[C@@H](O)[C@H]2O)c(=O)n1"
Result: 0.707

Q: // returns reported normalized area under the dose-response curve for input "COc1cc2nccc(Oc3ccc(NC(=O)NC4CC4)c(Cl)c3)c2cc1C(N)=O"
Result: 0.931

Q: What does the data say about its normalized area under the dose-response curve? Entry: "CC(=O)OC[C@H]1O[C@@H]([S-])[C@H](OC(C)=O)[C@@H](OC(C)=O)[C@@H]1OC(C)=O.CCP(CC)CC.[Au+]"
Result: 0.553
